system: T1, P8A-bP
T1 chain: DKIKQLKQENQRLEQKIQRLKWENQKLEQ
experiment_summary: two-hybrid library CCNG1;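 note: natural log of median RNA to DNA barcode read ratio; higher means stronger binding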
outcome_measure: interaction score

>>> result("DKIKQLKQKNQRLKQKNQRLKWKIQKLKQ [P2A-bP]")
-0.672
>>> result("DEIKQLEQEIQRLEQKNQRLKWKNQKLKQ [P3A-bP]")
-0.641
>>> result("DEIKQLEQKNQRLKQEIQRLEWKNQKLKQ [P7A-bP]")
1.1
>>> result("DKIKQLKQKIQRLKQENQRLEWENQKLEQ [P4A-bP]")
-0.918
>>> result("DKNKQLKQKIQRLKQKIQRLKWENQKLEQ [P12A-bP]")
-1.36
>>> result("DEIKQLEQENQRLEQENQRLEWEIQKLEQ [P1A-bP]")
-0.0351
>>> result("DENKQLEQKIQRLKQKNQRLKWEIQKLEQ [P5A-bP]")
-0.516
>>> result("DKIKQLKQENQRLEQKIQRLKWENQKLEQ [P8A-bP]")
-0.396
>>> result("DENKQLEQEIQRLEQEIQRLEWKNQKLKQ [P11A-bP]")
0.201
>>> result("DKNKQLKQEIQRLEQENQRLEWKIQKLKQ [P6A-bP]")
-0.264
>>> result("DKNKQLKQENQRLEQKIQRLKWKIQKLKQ [P10A-bP]")
-1.35
